Reported D2/D3 (D3 selectivity ratio, D2 Ki/D3 Ki) values for a set of compounds
Biological target: human D3 dopamine receptor (Homo sapiens (Human))
Experiment: Radioligand binding (125I-IABN competition), D3
Settings: calculated D2 Ki/D3 Ki
Recorded Endpoint: D2/D3 (D3 selectivity ratio, D2 Ki/D3 Ki)

Compound: CC(C)(C)c1cc(N2CCN(CCCCNC(=O)N3CCc4[nH]c5ccccc5c4C3)CC2)cc(C(C)(C)C)c1
Endpoint Result: 10
--
Compound: CCN1CCN(C(=O)NCCCCN2CCN(c3cc(C(F)(F)F)nc(C(C)(C)C)n3)CC2)CC1
Endpoint Result: 15
--
Compound: O=C(NCCCCN1CCN(c2ccnc3cc(Cl)ccc23)CC1)N1CCN(c2ccccc2)CC1
Endpoint Result: 35
--
Compound: CC(C)(C)c1cc(N2CCN(CCCCNC(=O)N3CCN(S(=O)(=O)c4ccccc4)CC3)CC2)nc(C(C)(C)C)n1
Endpoint Result: 15
--
Compound: O=C(NCCCCN1CCN(c2ccnc3cc(Cl)ccc23)CC1)N1CCC(c2ccccc2)CC1
Endpoint Result: 32
--
Compound: CC(C)(C)c1nc(N2CCN(CCCCNC(=O)N3CCN(C4CC4)CC3Cc3ccccc3)CC2)cc(C(F)(F)F)n1 (centres unmarked)
Endpoint Result: 8
--
Compound: CC(C)(C)c1nc(N2CCN(CCCCNC(=O)N3CCN(C(=O)c4ccccc4)CC3)CC2)cc(C(F)(F)F)n1
Endpoint Result: 34
--
Compound: CC(C)(C)c1cc(N2CCN(CCCCNC(=O)N3CCN(c4ccccc4)CC3)CC2)nc(C(C)(C)C)n1
Endpoint Result: 22
--
Compound: O=C(NCCCCN1CCN(c2cc(C(F)(F)F)nc3ccccc23)CC1)N1CCN(c2ccccc2)CC1
Endpoint Result: 24
--
Compound: CC(C)(C)c1nc(N2CCN(CCCCNC(=O)N3CCN(c4ccccc4-c4ccccc4)CC3)CC2)cc(C(F)(F)F)n1
Endpoint Result: 68
--
Compound: O=C(NCCCCN1CCN(c2ccc3ccccc3n2)CC1)C1CCC(c2ccccc2)CC1 (centres unmarked)
Endpoint Result: 50
--
Compound: CC(C)(C)c1nc(N2CCN(CCCCNC(=O)N3CCN(C4CC4)CC3)CC2)cc(C(F)(F)F)n1
Endpoint Result: 26
--
Compound: CC(C)(C)c1nc(N2CCN(CCCCNC(=O)N3CCc4[nH]c5ccc(Cl)cc5c4C3)CC2)cc(C(F)(F)F)n1
Endpoint Result: 6
--
Compound: CC(C)(C)c1nc(N2CCN(CCCCNC(=O)N3CCc4[nH]c5ccc(C#N)cc5c4C3)CC2)cc(C(F)(F)F)n1
Endpoint Result: 26
--
Compound: CC(C)(C)c1nc(N2CCN(CCCCNC(=O)N3CCN(c4ccccc4C#N)CC3)CC2)cc(C(F)(F)F)n1
Endpoint Result: 23
--
Compound: CN(C)Cc1cccc2nc(C(=O)NCCCCN3CCN(c4cc(C(F)(F)F)nc(C(C)(C)C)n4)CC3)cn12
Endpoint Result: 11
--
Compound: CC(C)N1CCN(C(=O)NCCCCN2CCN(c3cc(C(F)(F)F)nc(C(C)(C)C)n3)CC2)CC1
Endpoint Result: 13
--
Compound: CC(C)(C)c1nc(N2CCN(CCCCNC(=O)N3CCN(c4ccccn4)CC3)CC2)cc(C(F)(F)F)n1
Endpoint Result: 92
--
Compound: O=C(NCCCCN1CCN(c2ccnc3ccccc23)CC1)N1CCN(c2ccccc2)CC1
Endpoint Result: 119
--
Compound: CC(C)(C)c1nc(N2CCN(CCCCNC(=O)N3CCN(c4ccccc4)CC3)CC2)c2ccccc2n1
Endpoint Result: 94
--
Compound: CC(C)(C)c1nc(N2CCN(CCCCNC(=O)N3CCc4c([nH]c5ccccc45)C3)CC2)cc(C(F)(F)F)n1
Endpoint Result: 182
--
Compound: O=C(NCCCCN1CCN(c2cccc(Cl)c2Cl)CC1)N1CCN(c2ccccc2)CC1
Endpoint Result: 54
--
Compound: CC(C)(C)c1nc(N2CCN(CCCCNC(=O)N3CCN(C(c4ccccc4)c4ccc(Cl)cc4)CC3)CC2)cc(C(F)(F)F)n1 (centres unmarked)
Endpoint Result: 8
--
Compound: CC(C)(C)c1nc(N2CCN(CCCCNC(=O)N3CCN(c4ccccc4)C(=O)C3)CC2)cc(C(F)(F)F)n1
Endpoint Result: 50
--
Compound: CC(C)(C)c1nc(N2CCN(CCCCNC(=O)N3CC(c4ccncc4)C3)CC2)cc(C(F)(F)F)n1
Endpoint Result: 173
--
Compound: CC(C)(C)c1nc(N2CCN(CCCCNC(=O)N3CCc4[nH]c5ccccc5c4C3)CC2)cc(C(F)(F)F)n1
Endpoint Result: 11
--
Compound: CC(C)(C)c1nc(N2CCN(CCCCNC(=O)N3CCN(CC4CC4)CC3)CC2)cc(C(F)(F)F)n1
Endpoint Result: 13
--
Compound: CC(C)(C)c1nc(N2CCN(CCCCNC(=O)N3Cc4ccccc4C3)CC2)cc(C(F)(F)F)n1
Endpoint Result: 64
--
Compound: CC(C)(C)c1nc(N2CCN(CCCCNC(=O)N3CCN(c4cccc(C(F)(F)F)c4)CC3)CC2)cc(C(F)(F)F)n1
Endpoint Result: 35

###

Target: human D3 dopamine receptor (Homo sapiens (Human))
Assay: Radioligand binding (125I-IABN competition), D3
Settings: 125I-IABN competition, HEK cell membranes expressing human D3
pKi: −log10 of the molar value.

Molecule: CC(C)(C)c1nc(N2CCN(CCCCNC(=O)C3CCN(c4ccc(C(F)(F)F)cn4)CC3)CC2)cc(C(F)(F)F)n1
pKi: 6.78

Molecule: Cc1cc(N2CCN(CCCCNC(=O)N3CCN(c4ccccc4)CC3)CC2)nc(C(C)(C)C)n1
pKi: 8.57

Molecule: CC(C)(C)c1nc(N2CCN(CCCCNC(=O)N3CCCc4ccccc43)CC2)cc(C(F)(F)F)n1
pKi: 7.47

Molecule: O=C(NCCCCN1CCN(c2ccnc3cc(Cl)ccc23)CC1)C1CCC(c2ccccc2)CC1 (centres unmarked)
pKi: 7.46

Molecule: CC(C)(C)c1nc(N2CCN(CCCCNC(=O)N3CCc4c([nH]c5ccccc45)C3)CC2)cc(C(F)(F)F)n1
pKi: 8.52

Molecule: CC(C)(C)c1nc(N2CCN(CCCCNC(=O)N3CCN(c4ccc(Cl)c(Cl)c4)CC3)CC2)cc(C(F)(F)F)n1
pKi: 7.33

Molecule: CC(C)(C)c1nc(N2CCN(CCCCNC(=O)N3CCN(c4cc(C(F)(F)F)nc(C(C)(C)C)n4)CC3)CC2)cc(C(F)(F)F)n1
pKi: 6.97

Molecule: CC(C)(C)c1nc(N2CCN(CCCCNC(=O)N3CCN(c4cccc(-c5ccccc5)c4)CC3)CC2)cc(C(F)(F)F)n1
pKi: 7.31

Molecule: CC(C)(C)c1nc(N2CCN(CCCCNC(=O)N3CCN(c4cnccn4)CC3)CC2)cc(C(F)(F)F)n1
pKi: 8.07

Molecule: CC(C)(C)c1nc(N2CCN(CCCCNC(=O)N3CCN(c4cccc(C(F)(F)F)c4)CC3)CC2)cc(C(F)(F)F)n1
pKi: 7.53

Molecule: CC(C)(C)c1nc(N2CCN(CCCCNC(=O)N3CC(c4ccncc4)C3)CC2)cc(C(F)(F)F)n1
pKi: 8.46

Molecule: CC(C)(C)c1nc(N2CCN(CCCCNC(=O)N3CCN(c4ccccc4)CC3)CC2)cc(C(F)(F)F)n1
pKi: 8.57

Molecule: CC(C)(C)c1nc(N2CCN(CCCCNC(=O)N3CCN(CC=Cc4ccccc4)CC3)CC2)cc(C(F)(F)F)n1
pKi: 7.18

Molecule: CC(C)(C)c1nc(N2CCN(CCCCNC(=O)N3CCN(c4ccnc5cc(Cl)ccc45)CC3)CC2)cc(C(F)(F)F)n1
pKi: 7.72

###

Biological target: human D3 dopamine receptor (Homo sapiens (Human), UniProt P35462)
Sequence (P35462 whole entry): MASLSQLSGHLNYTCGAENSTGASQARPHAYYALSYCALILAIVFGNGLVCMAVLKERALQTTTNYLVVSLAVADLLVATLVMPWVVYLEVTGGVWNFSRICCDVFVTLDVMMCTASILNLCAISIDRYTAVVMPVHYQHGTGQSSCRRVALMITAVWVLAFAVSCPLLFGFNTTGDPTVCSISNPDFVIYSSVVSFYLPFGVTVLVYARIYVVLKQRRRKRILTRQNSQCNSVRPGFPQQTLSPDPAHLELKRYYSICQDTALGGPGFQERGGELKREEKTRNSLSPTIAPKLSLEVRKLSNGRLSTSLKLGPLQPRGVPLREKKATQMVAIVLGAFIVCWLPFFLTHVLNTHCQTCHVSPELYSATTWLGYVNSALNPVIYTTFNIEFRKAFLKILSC
Experiment: Radioligand binding (125I-IABN competition), D3
Details: calculated D2 Ki/D3 Ki
Please mark 1.0 if the recorded D2/D3 (D3 selectivity ratio, D2 Ki/D3 Ki) is equal to or greater than 20, and 0.0 if it falls below.

Smiles Representation: CC(C)(C)c1nc(N2CCN(CCCCNC(=O)N3CCN(c4ccnc5cc(Cl)ccc45)CC3)CC2)cc(C(F)(F)F)n1
Assigned Category: 0.0
//
Smiles Representation: CC(C)(C)c1nc(N2CCN(CCCCNC(=O)N3CCN(c4ccccc4Cl)CC3)CC2)cc(C(F)(F)F)n1
Assigned Category: 1.0
//
Smiles Representation: CC(C)(C)c1nc(N2CCN(CCCCNC(=O)N3CCN(c4ccc(C(F)(F)F)cc4)CC3)CC2)cc(C(F)(F)F)n1
Assigned Category: 1.0
//
Smiles Representation: Cc1cccc(N2CCN(C(=O)NCCCCN3CCN(c4cc(C(F)(F)F)nc(C(C)(C)C)n4)CC3)CC2)c1C
Assigned Category: 1.0
//
Smiles Representation: CC(C)(C)c1nc(N2CCN(CCCCNC(=O)N3CCN(c4cc(C(F)(F)F)nc(C(C)(C)C)n4)CC3)CC2)cc(C(F)(F)F)n1
Assigned Category: 0.0
//
Smiles Representation: CC(C)(C)c1nc(N2CCN(CCCCNC(=O)N3CCN(c4cnccn4)CC3)CC2)cc(C(F)(F)F)n1
Assigned Category: 1.0
